Just for reference, the supplement of paper PMC3545927 is where these values come from.

Test target: furin, P09958;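 further: purified furin at 1:10 enzyme:substrate in 50 mM HEPES pH 7.5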
Sequence (P09958 whole entry): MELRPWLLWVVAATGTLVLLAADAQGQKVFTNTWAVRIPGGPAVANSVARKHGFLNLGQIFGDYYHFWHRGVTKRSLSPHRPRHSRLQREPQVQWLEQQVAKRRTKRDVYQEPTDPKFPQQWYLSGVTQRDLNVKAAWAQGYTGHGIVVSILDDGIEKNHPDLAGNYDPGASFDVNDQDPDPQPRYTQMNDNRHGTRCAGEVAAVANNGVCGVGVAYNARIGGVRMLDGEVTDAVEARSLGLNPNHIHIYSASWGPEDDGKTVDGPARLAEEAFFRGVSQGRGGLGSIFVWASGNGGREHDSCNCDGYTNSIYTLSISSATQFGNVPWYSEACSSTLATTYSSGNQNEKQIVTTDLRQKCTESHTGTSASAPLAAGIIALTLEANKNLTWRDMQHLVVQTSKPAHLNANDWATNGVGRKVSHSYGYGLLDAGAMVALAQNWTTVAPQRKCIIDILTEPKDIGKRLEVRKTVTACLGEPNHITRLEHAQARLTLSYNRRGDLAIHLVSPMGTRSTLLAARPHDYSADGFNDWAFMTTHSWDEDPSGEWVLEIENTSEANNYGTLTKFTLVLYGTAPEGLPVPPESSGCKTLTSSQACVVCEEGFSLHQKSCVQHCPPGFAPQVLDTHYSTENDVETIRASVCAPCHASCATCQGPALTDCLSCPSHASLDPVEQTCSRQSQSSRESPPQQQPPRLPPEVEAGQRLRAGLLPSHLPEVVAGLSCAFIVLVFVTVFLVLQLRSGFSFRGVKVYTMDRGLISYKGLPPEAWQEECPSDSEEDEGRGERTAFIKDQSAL
Assay info: furin cleavage Z-score vs untreated control; higher = more cleavage, active = 3.5 or more, inactive = 1 or less, 8 variable residues between constant flanks
Assay conditions: 30 min
The list shows a part of the results. No count for the full screen is at hand.
Would you mind answering with one of these outcomes? 1 (active), 0 (inactive)

CATAHRIKRAAGNASASA [FS-383]; 1
CAELIEANLLAGNASASA [HC1273]; 0
CAEVVTSTWIAGNASASA [HC2244]; 0

Then there is this sequence:
Exam item: For this sequence, state the assay outcome: CAERKRECQLAGNASASA [FS-1670]
Marked response: 0
